src = patent US8703771B2

Tested on: acute lymphatic leukemia cell Sup-B15
Assay: MTS growth inhibition assay, Sup-B15 cell strain
Assay type: cell-based
Conditions: Homo sapiens, SUP-B15; MTS/PMS; 72 hours
Where a name gives a salt, the structure may show the parent alone.
Entries and their IC50 values follow.

# Compound, IC50 [nM]
measured = [
    ("Cc1ccc(NC(=O)c2ccc3c(c2)CC[C@@H]3N2CCN(C)CC2)cc1Nc1nccc(-c2cccnc2)n1 [EXAMPLE 16, sulfate]", 39.6),
    ("Cc1cn(-c2cc(NC(=O)c3ccc(C)c(Nc4nccc(-c5cccnc5)n4)c3)cc(C(F)(F)F)c2)cn1", 135),
]

* * *

Target: PDGFR (Homo sapiens)
Sequence (P09619 33-1106 limits assumed): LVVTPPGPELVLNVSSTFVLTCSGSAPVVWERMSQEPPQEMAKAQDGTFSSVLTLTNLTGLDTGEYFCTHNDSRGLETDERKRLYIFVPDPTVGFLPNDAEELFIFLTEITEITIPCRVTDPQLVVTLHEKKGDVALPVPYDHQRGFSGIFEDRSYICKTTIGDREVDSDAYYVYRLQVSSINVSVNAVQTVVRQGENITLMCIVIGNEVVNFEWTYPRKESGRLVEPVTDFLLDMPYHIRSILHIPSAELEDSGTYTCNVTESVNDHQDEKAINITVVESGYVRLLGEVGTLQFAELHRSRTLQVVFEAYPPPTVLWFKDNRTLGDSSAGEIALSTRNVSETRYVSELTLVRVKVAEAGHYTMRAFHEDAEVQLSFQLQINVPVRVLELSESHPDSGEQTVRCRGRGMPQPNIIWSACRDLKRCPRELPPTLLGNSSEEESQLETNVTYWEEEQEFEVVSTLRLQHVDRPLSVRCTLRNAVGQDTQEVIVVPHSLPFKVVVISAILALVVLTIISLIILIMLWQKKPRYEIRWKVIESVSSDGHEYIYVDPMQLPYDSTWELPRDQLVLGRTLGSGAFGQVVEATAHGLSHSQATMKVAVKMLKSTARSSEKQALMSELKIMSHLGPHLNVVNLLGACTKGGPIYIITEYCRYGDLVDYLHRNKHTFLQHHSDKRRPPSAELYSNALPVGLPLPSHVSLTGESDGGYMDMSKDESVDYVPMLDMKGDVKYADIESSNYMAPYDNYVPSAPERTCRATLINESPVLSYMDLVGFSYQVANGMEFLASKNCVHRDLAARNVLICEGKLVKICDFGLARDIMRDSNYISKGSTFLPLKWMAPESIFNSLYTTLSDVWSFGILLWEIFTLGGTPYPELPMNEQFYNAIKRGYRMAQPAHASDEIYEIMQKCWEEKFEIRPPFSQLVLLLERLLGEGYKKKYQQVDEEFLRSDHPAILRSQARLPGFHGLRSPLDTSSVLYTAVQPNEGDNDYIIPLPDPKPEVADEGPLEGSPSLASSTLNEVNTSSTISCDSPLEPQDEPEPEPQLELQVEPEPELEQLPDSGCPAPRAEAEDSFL
Test: Mobility Shift Assay of PDGFR kinase enzyme activity
Format: biochemical
Settings: ATP at Km 38 μM, 5 hours at 28° C.
Measurement kind: IC50 (nM)

# Compound, Reading
rows = [
    ("CC(=O)N1CCN(C2CCc3cc(C(=O)Nc4ccc(C)c(Nc5nccc(-c6cccnc6)n5)c4)ccc32)CC1 (centres unmarked)", 41),
    ("Cc1ccc(NC(=O)c2ccc3c(c2)CCC3N2CCN(C(=O)OC(C)(C)C)CC2)cc1Nc1nccc(-c2cccnc2)n1 (centres unmarked)", 233),
    ("Cc1ccc(NC(=O)c2ccc3c(c2)CCC3N2CCN(C)CC2)cc1Nc1nccc(-c2cncnc2)n1 (centres unmarked)", 22),
    ("Cc1ccc(NC(=O)c2ccc3c(c2)CC[C@@H]3N2CCN(C)CC2)cc1Nc1nccc(-c2cccnc2)n1", 9.6),
    ("Cc1ccc(NC(=O)c2ccc3c(c2)CCC3N2CCN(CCO)CC2)cc1Nc1nccc(-c2cccnc2)n1 (centres unmarked)", 20),
]
